procedure summary: NCI Yeast Anticancer Drug Screen. Data for the mlh1 rad18 strain (AID 175)
setup conditions: S. cerevisiae mlh1 rad18 strain growth inhibition; at 50.0 µM; stronger effect = higher value
About 79,000 compounds went through this panel and 15% of them were active in at least one assay; those are over-represented in the sample as a whole.
Entries and their growth inhibition values follow.
// note: answer is a bare numeric in %

Use the examples below as a reference point.
INSERT INTO measurements (molecule, number) VALUES
  ('CC(C)NC(=O)OCc1c(COC(=O)NC(C)C)c(S(=O)(=O)c2ccccc2)n2c1CCC2', 25.6),
  ('CCC(=O)Nc1cc(Cl)ccc1Cl', 11.2),
  ('CC(=O)OC1OC(c2ccoc2)C[C@@]12C1CCC3O[C@]3(C)[C@]1(C)C[C@H](OC(C)=O)[C@H]2C (stereo partly specified)', -13.2),
  ('CC1(Nc2ccccc2)OC(=O)c2ccccc21 (stereo unspecified)', -0.85),
  ('COc1ccc(C=Nc2ccc3c(c2)OCO3)cc1Br', 19.2),
  ('CCOC(=S)SCc1cc(C(C)(C)C)c(O)c(C(C)(C)C)c1', 1.8),
  ('CC(C)=CC1CC(=O)C1(C)Sc1ccccc1 (stereo unspecified)', 2.95),
  ('COc1ccc(C2CC2c2ccc(C#N)cc2)cc1 (stereo unspecified)', -22.8);

Request: Respond only with growth inhibition recorded for "COC(=O)N/N=C(\C)CC(=O)Nc1ccc(Cl)cc1"
Result: -43.7

Request: Respond only with growth inhibition recorded for CC(=O)OCC1C(OC(C)=O)C(OC(C)=O)C(n2cnc3c(N)ncnc32)N1C(C)=O (stereo unspecified)
Result: 4.35

Request: Respond only with growth inhibition recorded for "CC(=O)Nc1cccc(Cl)c1"
Result: 6.5

====

procedure summary: NCI Yeast Anticancer Drug Screen. Data for the cln2 rad14 strain (AID 165);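 further: 0% = growth equal to vehicle treated cultures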
setup conditions: S. cerevisiae cln2 rad14 strain, at 50.0 µM, stronger effect = higher value
Compounds without any hit were thinned out: in the full panel of roughly 79,000, 15% have a hit. Active and inactive are the calls of the source. Cut-off read from the data, not from the text of the source: active = growth inhibition above about 70%; inactive = the rest.
Entries and their growth inhibition values follow.

Use the examples below as a reference point.
INSERT INTO results (compound, result) VALUES
  ('CCCCC1=C(C)C/C(=N/Nc2ccc([N+](=O)[O-])cc2[N+](=O)[O-])C(C)C1CCCC (stereo not given)', '8.15% (inactive)'),
  ('CC1(C(=O)O)CCCC1C(CCC(=O)O)C(=O)O (stereo not given)', '-19.6% (inactive)'),
  ('CCOC(=O)C1=C(O)C(=O)N(Cc2ccccc2)C1', '-0.7% (inactive)');

Request: Respond only with growth inhibition recorded for O=C(O)C(O)c1ccc(Cl)c(Cl)c1 (stereo not given)
Result: -13.3% (inactive)

Request: Respond only with growth inhibition recorded for Cc1ccc(S(=O)C(C)C(Cl)c2ccccc2)cc1 (stereo not given)
Result: 16.9% (inactive)

Request: Respond only with growth inhibition recorded for CC(C)(C)OC(=O)C(C1NC(C(=O)O)C(C)(C)S1)N1C(=O)c2ccccc2C1=O (stereo not given)
Result: -42.1% (inactive)

Request: Respond only with growth inhibition recorded for "O=Cc1ccc(OC(=O)c2ccccc2)cc1"
Result: -13.3% (inactive)

Request: Respond only with growth inhibition recorded for "CN(C1CCCCC1)S(=O)(=O)c1ccc(N)cc1"
Result: 11.4% (inactive)

Request: Respond only with growth inhibition recorded for "Nc1ccc(S(=O)(=O)O)cc1[N+](=O)[O-]"
Result: 1% (inactive)

Request: Respond only with growth inhibition recorded for "Nc1nc2c(ncn2Cc2ccc(Cl)c(Cl)c2)c(=O)[nH]1"
Result: -10.1% (inactive)

Request: Respond only with growth inhibition recorded for COC1C(/C=[N+](\C)[O-])OC2OC(C)(C)OC21 (stereo not given)
Result: -26.1% (inactive)

Request: Respond only with growth inhibition recorded for "COc1ccc(/C=N\S(=O)(=O)c2ccc(OC)cc2)cc1"
Result: 8.8% (inactive)

Request: Respond only with growth inhibition recorded for "C/C=C/C(=O)N(CC)c1ccccc1"
Result: -8.35% (inactive)

Request: Respond only with growth inhibition recorded for "O=C(/C=C\c1ccco1)NC(=O)NC(=O)N1CCCCC1"
Result: -16.4% (inactive)

Request: Respond only with growth inhibition recorded for "Cc1ccccc1N=C(N)Nc1ccccc1C"
Result: 5.7% (inactive)

Cited source for all entries: PubChem BioAssay (NCI)
